- Tested on: HCT-15 colon
- Assay Notes: NCI tumour cell line growth inhibition, 48 h
Assay Readout: log10 of TGI (log10 of the value in µM)
Field: value | Transform: log10 | Quantity: TGI | Unit: µM

compound=CC(=O)CCc1ccc(Oc2c3ccccc3nc3occc23)cc1 experimental_target="HCT-15 colon" reading=1.87
compound="COc1ccccc1N1C(=O)CSC1c1cccc(Oc2ccccc2)c1 (stereo unspecified)" experimental_target="HCT-15 colon" reading=1.57
compound="C=CCC1(CN(C)C)CC/C(=C\\c2cc(OC)c(OC)c(OC)c2)C1=O (stereo unspecified)" experimental_target="HCT-15 colon" reading=1.55

Exercise: HCT-15 colon / log10 of TGI / "CCCCNC(=O)Oc1ccc(/C(=C(\C)c2ccc(OC)cc2)c2ccc(OCCN3CCCCC3)cc2)cc1" : value?
Solution: 0.66

Exercise: Then what about the compound "FC(F)(F)c1cccc(Oc2ccc(Nc3ncnc4ccc(OCCCN5CCOCC5)cc34)cc2Cl)c1" ?
Solution: 0.50

* * *

- Test system: CAKI-1 renal
- Assay Notes: NCI tumour cell line growth inhibition, 48 h; in the data active = GI50 below about 0.43 µM; inactive = the rest
Pick from active, inactive when you respond.

Recorded results for 2 compounds are shown here.
sample_smiles=COc1cc(-c2n/c(=C\c3c(O)[nH]c4ccccc34)cc3c2=Nc2ccccc2-3)ccc1F label_class=inactive
sample_smiles=Cn1cc(-c2ncnc3ccc(-c4cnc(Cl)c(NS(C)(=O)=O)c4)cc23)c2ccccc21 label_class=active

# input for lookup
Exercise: Call for entry "CCCCCCCC(=O)Nc1nc2[nH]c(CN3CCN(Cc4cccc(I)c4)CC3)c(CN3CCN(Cc4cccc(I)c4)CC3)c2c(=O)[nH]1" :
Solution: inactive

* * *

Measured TGI by item
- System: SNB-75 CNS
- Assay Notes: NCI tumour cell line growth inhibition, 48 h
// return numeric value only (unit: µM, not printed)

molecule=O=C(Nc1ccc(Cl)cc1)c1cc(NCc2cc(O)ccc2O)ccc1O reading=8.99
molecule=COc1cc(/C=C/C(=O)c2ccccc2O)ccc1OCCCOc1cc2c(cc1OC)C(=O)N1CCC[C@H]1C=N2 reading=0.222
molecule=CCCC[C@H](CCc1ccccc1)N(C(=O)OC)N1CCC[C@H]1COC reading=79.1
molecule=COc1cc(-c2n/c(=C\c3c(O)[nH]c4ccccc34)cc3c2=Nc2ccccc2-3)ccc1F reading=63.6
molecule=N/C(=C\c1ccc(/C=C(\NC(=O)c2ccccc2)c2nc3c([nH]2)C(=O)c2ccccc2C3=O)cc1)c1nc2c([nH]1)C(=O)c1ccccc1C2=O reading=18.8
molecule=NCCCNCc1c2ccccc2c(CNCCCN)c2ccccc12 reading=44

Exercise: Quick check: TGI of "Cc1cc(C)c([I+]c2c(C)cc(C)cc2C)c(C)c1" ?
Solution: 1.39

Exercise: Then what about the molecule "COc1cc(/C=C2\C(=O)Nc3ccc(Cl)cc32)cc(OC)c1OC" ?
Solution: 21.8

Exercise: Then what about the molecule "COc1ccc2c(c1)C(=O)c1c-2n(CCCN=[N+]=[N-])c(=O)c2cc([N+](=O)[O-])ccc12" ?
Solution: 20.5

Exercise: Then what about the molecule "Oc1cccc2ccc(SSc3ccc4cccc(O)c4n3)nc12" ?
Solution: 34.9

Exercise: Then what about the molecule "N#Cc1c(N)c(C(=O)c2ccc3c(c2)OCCO3)n2c1CCCC2" ?
Solution: 7.48

The measured values listed here are drawn from PubChem BioAssay (NCI).
